molecular target: T1, human chemokine (C-C motif) receptor 8 (CCR8) (human, UniProt P51685 1-355); test: flow cytometry blocking, PBMC CCR8+ CD4+ cells; competitor PE-AB3 (its MFI is read)
T1 construct: On human peripheral blood lymphocytes / PBMC (native) or on human CCR8 GFP-transfected Ba/F3 cells; also called hCCR8; human CCR8
T1 sequence (P51685 whole entry): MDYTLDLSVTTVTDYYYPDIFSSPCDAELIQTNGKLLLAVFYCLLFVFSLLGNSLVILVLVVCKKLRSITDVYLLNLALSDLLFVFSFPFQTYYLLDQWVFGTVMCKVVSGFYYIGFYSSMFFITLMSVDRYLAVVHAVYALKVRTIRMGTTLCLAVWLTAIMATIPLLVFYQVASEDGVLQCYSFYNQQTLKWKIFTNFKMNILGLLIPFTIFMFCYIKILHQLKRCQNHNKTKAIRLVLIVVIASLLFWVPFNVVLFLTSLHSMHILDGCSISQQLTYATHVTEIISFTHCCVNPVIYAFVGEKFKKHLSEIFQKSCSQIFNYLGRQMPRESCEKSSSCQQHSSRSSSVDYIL
Result Type: % Blocking (%)
Your answer should be a plain number; it is taken to be in %.

{"columns": ["Binder", "Unit Descriptor", "% Blocking"],
 "data": [
  ["AB2 (antibody, V domains shown, Hybridoma monoclonal; also called antibody 2; clone 2) VH: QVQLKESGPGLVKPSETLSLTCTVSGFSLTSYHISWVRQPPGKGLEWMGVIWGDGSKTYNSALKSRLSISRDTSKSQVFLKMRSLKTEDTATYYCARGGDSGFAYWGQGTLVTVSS VL: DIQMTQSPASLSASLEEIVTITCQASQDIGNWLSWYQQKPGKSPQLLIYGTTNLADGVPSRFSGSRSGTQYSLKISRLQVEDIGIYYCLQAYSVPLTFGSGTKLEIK", "%", 42.4],
  ["AB3 (antibody, V domains shown, Hybridoma monoclonal; also called antibody 3; clone 3) VH: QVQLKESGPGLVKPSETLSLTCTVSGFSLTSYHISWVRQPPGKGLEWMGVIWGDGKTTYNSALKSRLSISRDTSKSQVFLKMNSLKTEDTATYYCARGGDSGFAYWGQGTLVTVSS VL: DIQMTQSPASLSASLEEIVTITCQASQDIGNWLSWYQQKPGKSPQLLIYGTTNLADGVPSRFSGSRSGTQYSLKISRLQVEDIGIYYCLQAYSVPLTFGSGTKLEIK", "%", 100]
]}

With those in mind, consider the next binder.
input: Quick one: % Blocking of AB14 (antibody, V domains shown, Hybridoma monoclonal; also called antibody 14; clone 14) VH: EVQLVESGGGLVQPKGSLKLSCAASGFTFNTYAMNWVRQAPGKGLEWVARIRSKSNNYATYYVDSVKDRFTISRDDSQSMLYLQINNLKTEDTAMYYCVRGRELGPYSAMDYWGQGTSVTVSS VL: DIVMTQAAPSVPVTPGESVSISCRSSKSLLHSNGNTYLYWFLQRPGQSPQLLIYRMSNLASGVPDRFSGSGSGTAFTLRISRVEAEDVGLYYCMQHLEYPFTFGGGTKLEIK ?
output: -23.3
